- Tested on: HUVEC/MSC spheroids viability
- Procedure Details: Human HUVEC/MSC cell line growth inhibition [KRAS2];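 for viability, T/C: percent of DMSO vehicle control luminescence so 100% = untreated viability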
- Details: second compound 0.0316 µM; first compound 3.16 µM; stronger effect = lower value
Metric Name: viability, T/C (%)

| Compound | Unit String | Readout Value |
| --- | --- | --- |
| CC1(C)CCC(CN2CCN(c3ccc(C(=O)NS(=O)(=O)c4ccc(NCC5CCOCC5)c([N+](=O)[O-])c4)c(Oc4cnc5[nH]ccc5c4)c3)CC2)=C(c2ccc(Cl)cc2)C1 + COc1cc2nc(C)nc(NC(C)c3cc(N)cc(C(F)(F)F)c3)c2cc1OC1CCOC1 | % | 82.3 |
| O=C(c1cc(Cc2n[nH]c(=O)c3ccccc23)ccc1F)N1CCN(C(=O)C2CC2)CC1 + COc1cc2nc(C)nc(NC(C)c3cc(N)cc(C(F)(F)F)c3)c2cc1OC1CCOC1 | % | 89.7 |
| CCNC(=O)CC1N=C(c2ccc(Cl)cc2)c2cc(OC)ccc2-n2c(C)nnc21 (stereo not drawn) + CC1OCC2(CCN(c3cnc(Sc4ccnc(N)c4Cl)c(N)n3)CC2)C1N | % | 110 |
| Cn1nccc1Nc1nccc(-c2cc3c(s2)C(C)(C)N(CCN2CCOCC2)C3=O)n1 + COc1cc2nc(C)nc(NC(C)c3cc(N)cc(C(F)(F)F)c3)c2cc1OC1CCOC1 | % | 32.1 |
| CC1OCC2(CCN(c3cnc(Sc4ccnc(N)c4Cl)c(N)n3)CC2)C1N (stereo not drawn) + C=CC(=O)N1CCN(c2nc(=O)n(-c3c(C)ccnc3C(C)C)c3nc(-c4c(O)cccc4F)c(F)cc23)C(C)C1 | % | 70.1 |
| COc1cc2nccc(Oc3ccc(NC(=O)C4(C(=O)Nc5ccc(F)cc5)CC4)cc3)c2cc1OC + CNCc1ccccc1-c1csc(C(C)Nc2nc(C)nc3cc(OC)c(OC)cc23)c1 | % | 84.2 |
| COc1cc(Nc2ncc3c(n2)-c2ccc(Cl)cc2C(c2c(F)cccc2OC)=NC3)ccc1C(=O)O + CC1OCC2(CCN(c3cnc(Sc4ccnc(N)c4Cl)c(N)n3)CC2)C1N | % | 85.2 |
| COc1cc(Nc2ncc3c(n2)-c2ccc(Cl)cc2C(c2c(F)cccc2OC)=NC3)ccc1C(=O)O + CNCc1ccccc1-c1csc(C(C)Nc2nc(C)nc3cc(OC)c(OC)cc23)c1 | % | 84.6 |

* * *

- Test system: HUVEC/MSC spheroids viability
- Procedure Details: Human HUVEC/MSC cell line growth inhibition [KRAS2];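 for viability, T/C: percent of DMSO vehicle control luminescence so 100% = untreated viability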
- Details: second compound 3.16 µM; first compound 0.01 µM; stronger effect = lower value
# note: boundary value 80% maps to not fulfilled; viability, T/C below it maps to fulfilled

| Molecule | Qualitative Label |
| --- | --- |
| CC(C)n1nc(-c2ccc3oc(N)nc3c2)c2c(N)ncnc21 + C=CC(=O)N1CCN(c2nc(=O)n(-c3c(C)ccnc3C(C)C)c3nc(-c4c(O)cccc4F)c(F)cc23)C(C)C1 | fulfilled |
| CCN1CCN(Cc2ccc(Nc3ncc(F)c(-c4cc(F)c5nc(C)n(C(C)C)c5c4)n3)nc2)CC1 + CC1OCC2(CCN(c3cnc(Sc4ccnc(N)c4Cl)c(N)n3)CC2)C1N | not fulfilled |
| CCN1CCN(Cc2ccc(Nc3ncc(F)c(-c4cc(F)c5nc(C)n(C(C)C)c5c4)n3)nc2)CC1 + COc1cc2nc(C)nc(NC(C)c3cc(N)cc(C(F)(F)F)c3)c2cc1OC1CCOC1 | fulfilled |
| CC(C)n1nc(-c2ccc3oc(N)nc3c2)c2c(N)ncnc21 + CC1OCC2(CCN(c3cnc(Sc4ccnc(N)c4Cl)c(N)n3)CC2)C1N | fulfilled |
| Cn1ncnc1[C@H]1c2n[nH]c(=O)c3cc(F)cc(c23)N[C@@H]1c1ccc(F)cc1 + CC1OCC2(CCN(c3cnc(Sc4ccnc(N)c4Cl)c(N)n3)CC2)C1N | fulfilled |
| CN(C)C/C=C/C(=O)Nc1cc2c(Nc3ccc(F)c(Cl)c3)ncnc2cc1O[C@H]1CCOC1 + COc1cc2nc(C)nc(NC(C)c3cc(N)cc(C(F)(F)F)c3)c2cc1OC1CCOC1 | not fulfilled |
| CN(C)C/C=C/C(=O)Nc1cc2c(Nc3ccc(F)c(Cl)c3)ncnc2cc1O[C@H]1CCOC1 + CNCc1ccccc1-c1csc(C(C)Nc2nc(C)nc3cc(OC)c(OC)cc23)c1 | not fulfilled |
| CN(C)C/C=C/C(=O)Nc1cc2c(Nc3ccc(F)c(Cl)c3)ncnc2cc1O[C@H]1CCOC1 + C=CC(=O)N1CCN(c2nc(=O)n(-c3c(C)ccnc3C(C)C)c3nc(-c4c(O)cccc4F)c(F)cc23)C(C)C1 | not fulfilled |

* * *

- Test system: HUVEC/MSC spheroids viability
- Procedure Details: Human HUVEC/MSC cell line growth inhibition [KRAS2]
- Details: curve of first compound; second compound 0.03 µM
pIC50: −log10 of the molar value.

| Compound | Tgt | pIC50 |
| --- | --- | --- |
| COc1cc(Nc2ncc3c(n2)-c2ccc(Cl)cc2C(c2c(F)cccc2OC)=NC3)ccc1C(=O)O + C=CC(=O)N1CCN(c2nc(OCC3CCCN3C)nc3c2CCN(c2cccc4cccc(C)c24)C3)CC1CC#N | HUVEC/MSC spheroids viability | < 5.00 |
| CCNC(=O)CC1N=C(c2ccc(Cl)cc2)c2cc(OC)ccc2-n2c(C)nnc21 (stereo not given) + C=CC(=O)N1CCN(c2nc(OCC3CCCN3C)nc3c2CCN(c2cccc4cccc(C)c24)C3)CC1CC#N | HUVEC/MSC spheroids viability | < 5.00 |
| CC(C)NCC(C(=O)N1CCN(c2ncnc3c2C(C)CC3O)CC1)c1ccc(Cl)cc1 (stereo not given) + C=CC(=O)N1CCN(c2nc(OCC3CCCN3C)nc3c2CCN(c2cccc4cccc(C)c24)C3)CC1CC#N | HUVEC/MSC spheroids viability | < 5.00 |
| Cn1ncnc1[C@H]1c2n[nH]c(=O)c3cc(F)cc(c23)N[C@@H]1c1ccc(F)cc1 + C=CC(=O)N1CCN(c2nc(OCC3CCCN3C)nc3c2CCN(c2cccc4cccc(C)c24)C3)CC1CC#N | HUVEC/MSC spheroids viability | < 7.00 |
| CC1OCC2(CCN(c3cnc(Sc4ccnc(N)c4Cl)c(N)n3)CC2)C1N (stereo not given) + C=CC(=O)N1CCN(c2nc(OCC3CCCN3C)nc3c2CCN(c2cccc4cccc(C)c24)C3)CC1CC#N | HUVEC/MSC spheroids viability | < 5.00 |

* * *

The entries below come with measured viability, T/C values attached.
- Tested on: HUVEC/MSC spheroids viability
- Procedure Details: Human HUVEC/MSC cell line growth inhibition [KRAS2];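 for viability, T/C: percent of DMSO vehicle control luminescence so 100% = untreated viability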
- Details: second compound 0.03 µM; first compound 0.01 µM; stronger effect = lower value

| Compound | viability, T/C |
| --- | --- |
| CCN1CCN(Cc2ccc(Nc3ncc(F)c(-c4cc(F)c5nc(C)n(C(C)C)c5c4)n3)nc2)CC1 + C=CC(=O)N1CCN(c2nc(OCC3CCCN3C)nc3c2CCN(c2cccc4cccc(C)c24)C3)CC1CC#N | 75.4% |
| CC(C)n1nc(-c2ccc3oc(N)nc3c2)c2c(N)ncnc21 + C=CC(=O)N1CCN(c2nc(OCC3CCCN3C)nc3c2CCN(c2cccc4cccc(C)c24)C3)CC1CC#N | 54.1% |
| Cn1ncnc1[C@H]1c2n[nH]c(=O)c3cc(F)cc(c23)N[C@@H]1c1ccc(F)cc1 + C=CC(=O)N1CCN(c2nc(OCC3CCCN3C)nc3c2CCN(c2cccc4cccc(C)c24)C3)CC1CC#N | 77.9% |

* * *

- Tested on: HUVEC/MSC spheroids viability
- Procedure Details: Human HUVEC/MSC cell line growth inhibition [KRAS2]; active = viability on the fitted dose curve at most 10% of control; inactive = the rest
- Details: second compound 0.0316 µM; first compound 10 µM
Labels: active, inactive

| Molecule | Qualitative Label |
| --- | --- |
| COC(=O)c1ccc2c(C(=Nc3ccc(N(C)C(=O)CN4CCN(C)CC4)cc3)c3ccccc3)c(O)[nH]c2c1 + C=CC(=O)N1CCN(c2nc(=O)n(-c3c(C)ccnc3C(C)C)c3nc(-c4c(O)cccc4F)c(F)cc23)C(C)C1 | active |
| CC(C)NCC(C(=O)N1CCN(c2ncnc3c2C(C)CC3O)CC1)c1ccc(Cl)cc1 (stereo not given) + CNCc1ccccc1-c1csc(C(C)Nc2nc(C)nc3cc(OC)c(OC)cc23)c1 | inactive |
| COC(=O)c1ccc2c(C(=Nc3ccc(N(C)C(=O)CN4CCN(C)CC4)cc3)c3ccccc3)c(O)[nH]c2c1 + COc1cc2nc(C)nc(NC(C)c3cc(N)cc(C(F)(F)F)c3)c2cc1OC1CCOC1 | active |
| COc1cc(Nc2ncc3c(n2)-c2ccc(Cl)cc2C(c2c(F)cccc2OC)=NC3)ccc1C(=O)O + COc1cc2nc(C)nc(NC(C)c3cc(N)cc(C(F)(F)F)c3)c2cc1OC1CCOC1 | inactive |
| CC1OCC2(CCN(c3cnc(Sc4ccnc(N)c4Cl)c(N)n3)CC2)C1N (stereo not given) + COc1cc2nc(C)nc(NC(C)c3cc(N)cc(C(F)(F)F)c3)c2cc1OC1CCOC1 | inactive |
